Target: T1, human prolactin receptor (PRLR) (human, UniProt P16471 25-622)
T1 sequence: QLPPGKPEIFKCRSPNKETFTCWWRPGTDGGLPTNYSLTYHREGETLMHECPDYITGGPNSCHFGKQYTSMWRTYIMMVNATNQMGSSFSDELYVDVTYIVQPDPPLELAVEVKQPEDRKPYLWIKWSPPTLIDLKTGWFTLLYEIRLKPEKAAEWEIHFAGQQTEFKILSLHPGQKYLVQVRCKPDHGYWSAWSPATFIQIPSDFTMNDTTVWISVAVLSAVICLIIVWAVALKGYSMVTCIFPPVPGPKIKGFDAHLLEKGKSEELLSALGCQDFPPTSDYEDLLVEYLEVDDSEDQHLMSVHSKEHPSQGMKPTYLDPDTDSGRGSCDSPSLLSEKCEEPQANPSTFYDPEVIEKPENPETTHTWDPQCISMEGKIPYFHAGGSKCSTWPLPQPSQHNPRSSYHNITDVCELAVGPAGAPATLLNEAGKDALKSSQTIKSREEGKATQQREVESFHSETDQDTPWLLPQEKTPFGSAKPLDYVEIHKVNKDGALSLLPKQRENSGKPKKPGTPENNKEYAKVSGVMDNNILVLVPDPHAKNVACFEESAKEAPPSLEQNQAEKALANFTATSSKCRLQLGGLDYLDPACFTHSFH
Assay: cell-based or functional assay

| binder | % Kill, MCF7/ATCC cells, % |
| --- | --- |
| H1H6953N-mc-VC-PAB-MMAE (antibody, human IgG1, V domains shown, MMAE conjugated through cleavable mc-vc-PAB linker; attachment residues not stated) VH: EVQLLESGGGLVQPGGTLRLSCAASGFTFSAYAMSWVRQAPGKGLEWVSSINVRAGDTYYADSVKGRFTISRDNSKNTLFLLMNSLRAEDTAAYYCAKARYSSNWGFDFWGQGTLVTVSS VL: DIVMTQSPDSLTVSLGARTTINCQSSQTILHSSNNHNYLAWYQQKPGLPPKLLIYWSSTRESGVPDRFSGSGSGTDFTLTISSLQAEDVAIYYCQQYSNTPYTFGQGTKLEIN | 42 |
| H1H6953N-DM1 (antibody, human IgG1, V domains shown, DM1 conjugated through SMCC linker; attachment residues not stated) VH: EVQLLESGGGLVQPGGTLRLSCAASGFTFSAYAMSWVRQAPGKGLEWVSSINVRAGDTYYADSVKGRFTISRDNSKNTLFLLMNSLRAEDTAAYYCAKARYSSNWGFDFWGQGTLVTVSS VL: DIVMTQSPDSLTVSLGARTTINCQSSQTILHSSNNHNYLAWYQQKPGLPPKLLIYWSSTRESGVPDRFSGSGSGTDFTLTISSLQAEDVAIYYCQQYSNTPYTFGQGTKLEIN | 70 |
| H1H6958N2-mc-VC-PAB-MMAE (antibody, human IgG1, V domains shown, MMAE conjugated through cleavable mc-vc-PAB linker; attachment residues not stated) VH: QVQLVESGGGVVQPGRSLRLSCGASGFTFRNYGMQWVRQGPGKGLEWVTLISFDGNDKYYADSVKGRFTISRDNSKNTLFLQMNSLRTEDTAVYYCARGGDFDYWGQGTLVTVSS VL: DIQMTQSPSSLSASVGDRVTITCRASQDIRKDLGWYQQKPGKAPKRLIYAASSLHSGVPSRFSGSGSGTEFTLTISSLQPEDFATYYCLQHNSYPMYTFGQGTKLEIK | 53 |
| H1H6765P-mc-VC-PAB-MMAE (antibody, human IgG1, V domains shown, MMAE conjugated through cleavable mc-vc-PAB linker; attachment residues not stated) VH: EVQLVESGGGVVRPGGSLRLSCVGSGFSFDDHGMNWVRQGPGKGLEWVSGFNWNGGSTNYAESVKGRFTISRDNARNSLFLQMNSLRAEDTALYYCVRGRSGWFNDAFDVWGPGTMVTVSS VL: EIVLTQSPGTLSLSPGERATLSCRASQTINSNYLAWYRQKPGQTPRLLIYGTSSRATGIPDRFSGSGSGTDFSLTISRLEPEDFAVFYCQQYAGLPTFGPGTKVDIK | 38 |
| H1H6958N2-DM1 (antibody, human IgG1, V domains shown, DM1 conjugated through SMCC linker; attachment residues not stated) VH: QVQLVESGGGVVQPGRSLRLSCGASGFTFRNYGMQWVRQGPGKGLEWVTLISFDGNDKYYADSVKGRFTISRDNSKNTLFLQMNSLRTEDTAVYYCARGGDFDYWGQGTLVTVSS VL: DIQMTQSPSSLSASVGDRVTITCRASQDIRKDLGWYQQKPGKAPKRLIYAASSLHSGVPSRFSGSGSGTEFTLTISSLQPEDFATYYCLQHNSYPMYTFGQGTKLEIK | 72 |
| H1H6765P-DM1 (antibody, human IgG1, V domains shown, DM1 conjugated through SMCC linker; attachment residues not stated) VH: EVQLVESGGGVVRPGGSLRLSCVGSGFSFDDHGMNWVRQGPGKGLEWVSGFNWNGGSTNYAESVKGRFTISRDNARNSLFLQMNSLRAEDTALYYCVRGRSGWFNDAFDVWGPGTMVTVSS VL: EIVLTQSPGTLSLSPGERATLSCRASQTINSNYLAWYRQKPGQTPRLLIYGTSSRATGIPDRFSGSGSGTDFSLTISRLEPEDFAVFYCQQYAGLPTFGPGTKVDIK | 71 |
